Entry source: patent US20090023718A1

- MEASURED TARGET: histone deacetylase, subtype 1 (HDAC1) (Homo sapiens, UniProt Q13547)
- Construct: Flag; made in house
- Sequence (Q13547 whole entry): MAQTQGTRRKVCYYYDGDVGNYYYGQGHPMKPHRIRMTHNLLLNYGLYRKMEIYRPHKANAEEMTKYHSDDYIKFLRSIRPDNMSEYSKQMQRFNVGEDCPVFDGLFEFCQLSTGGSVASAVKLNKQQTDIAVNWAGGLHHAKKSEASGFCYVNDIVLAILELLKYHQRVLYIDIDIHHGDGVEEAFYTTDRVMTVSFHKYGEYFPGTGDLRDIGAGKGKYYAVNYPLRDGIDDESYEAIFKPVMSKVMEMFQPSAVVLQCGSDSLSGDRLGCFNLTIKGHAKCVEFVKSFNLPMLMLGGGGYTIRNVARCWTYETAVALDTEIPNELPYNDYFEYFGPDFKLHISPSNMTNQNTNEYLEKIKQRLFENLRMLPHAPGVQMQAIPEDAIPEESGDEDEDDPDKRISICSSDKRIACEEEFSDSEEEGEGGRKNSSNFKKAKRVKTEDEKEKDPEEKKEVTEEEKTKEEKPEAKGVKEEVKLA
- PROTOCOL DESCRIPTION: HDAC1-Flag assay (in vitro fluorescent deacetylation assay)
- Format: biochemical
- APPLIED CONDITIONS: Table 1, compounds of formula II; epitope-tagged human HDAC1 complex, substrate at Km; mean ± spread (N); read-out: HDAC Inhibition (IC50) nm
pIC50: −log10 of the molar value.
READOUT LABEL: pIC50

Some solved entries appear below for comparison.
Cc1ccc(S(=O)(=O)Nc2ccc(NC(=O)CN(CC(=O)Nc3ccc(NS(=O)(=O)c4ccc(C)cc4)cc3)C(=O)CCCCCC(=O)NO)cc2)cc1 [Compound 28] :: 7.48
O=C(CCCCCC(=O)N(CC(=O)Nc1ccccc1Oc1ccccc1)CC(=O)Nc1ccccc1Oc1ccccc1)NO [Compound 26] :: 6.35
O=C(CCCCCC(=O)N(CC(=O)NC1CCc2ccccc21)CC(=O)NC1CCc2ccccc21)NO (stereo not drawn) [Compound 37] :: 7.15
O=C(CCCCCC(=O)N(CC(=O)NCCc1c[nH]c2ccccc12)CC(=O)NCCc1c[nH]c2ccccc12)NO [Compound 33] :: 7.40

[a] O=C(CCCCCCC(=O)N(CC(=O)NC1CCCCC1)CC(=O)NC1CCCCC1)NO [Compound 21]
[b] O=C(CCCCCC(=O)N(CC(=O)Nc1ccc2ncccc2c1)CC(=O)Nc1ccc2ncccc2c1)NO [Compound 2]
[c] O=C(CCCCCC(=O)N(CC(=O)Nc1ccc2[nH]ncc2c1)CC(=O)Nc1ccc2[nH]ncc2c1)NO [Compound 1]
# desc sort on pIC50 across 3 compounds When ranking, write the labels in the order the request describes.
c, b, a

###

- MEASURED TARGET: histone deacetylase, subtype 1 (HDAC1) (Homo sapiens)
- Construct: Flag; made in house
- PROTOCOL DESCRIPTION: HDAC1-Flag assay (in vitro fluorescent deacetylation assay)
- Type: biochemical
- APPLIED CONDITIONS: Table 5, other HDAC inhibitors of formula I; epitope-tagged human HDAC1 complex, substrate at Km; mean ± spread (N); read-out: HDAC Inhibition (IC50) nm
pIC50: −log10 of the molar value.
READOUT LABEL: pIC50

[A] CN(CCCCCC(=O)NO)CC(=O)NCc1ccccc1 [Compound 85]
[B] CN(CCCCCC(=O)NO)CC(=O)NCCc1ccccc1 [Compound 86]
Name the one with the greater pIC50 value, either A or B as given. Respond using the label that marks the chosen record.
B

###

- MEASURED TARGET: histone deacetylase, subtype 1 (HDAC1) (Homo sapiens, UniProt Q13547)
- Construct: Flag; made in house
- PROTOCOL DESCRIPTION: HDAC1-Flag assay (in vitro fluorescent deacetylation assay)
- Assay type: biochemical
- APPLIED CONDITIONS: Table 1, compounds of formula II; epitope-tagged human HDAC1 complex, substrate at Km; mean ± spread (N); read-out: HDAC Inhibition (IC50) nm
pIC50: −log10 of the molar value.
READOUT LABEL: pIC50

O=C(CCCCCC(=O)N(CC(=O)Nc1nc2ccccc2s1)CC(=O)Nc1nc2ccccc2s1)NO :: 8.02
O=C(CCCCCC(=O)N(CC(=O)Nc1cccc(Oc2ccccc2)c1)CC(=O)Nc1cccc(Oc2ccccc2)c1)NO :: 6.86
Cn1c(NC(=O)CN(CC(=O)Nc2nc3ccccc3n2C)C(=O)CCCCCC(=O)NO)nc2ccccc21 :: 7.08
O=C(CCCCCC(=O)N(CC(=O)Nc1ccc(OCc2ccccc2)cc1)CC(=O)Nc1ccc(OCc2ccccc2)cc1)NO :: 7.04
O=C(CCCCCC(=O)N(CC(=O)Nc1ccccc1)CC(=O)Nc1ccccc1)NO :: 7.69

[P] O=C(CCCCCCC(=O)N(CC(=O)Nc1ccc(OCc2ccccc2)cc1)CC(=O)Nc1ccc(OCc2ccccc2)cc1)NO
[Q] O=C(CCCCCCC(=O)N(CC(=O)Nc1ccc2ncccc2c1)CC(=O)Nc1ccc2ncccc2c1)NO
Compare P and Q by numeric pIC50 and name the larger one. Your answer should be the label of the entry you select.
Q
